The measurements presented in this section are drawn from ChEMBL document CHEMBL4513216.

System: Plasmodium falciparum
MEASUREMENT PROTOCOL: Screen against P. falciparum Asexual Blood Stage (ABS), at 5uM
Format: functional, Dd2
SETUP CONDITIONS: tested at 5 uM
Among all 65,000 compounds or so, about 2,100 (3.2%) showed an effect of 50% or more. The median lay at about -52%. Many of the other results were omitted from the sample, so strong results are more common in it than they were.
MEASURE NAME: INHIBITION (%)
Just the number please, in %, no unit attached.

COMPOUND: c1cncc(-c2noc(CN3CCOC(Cn4cccn4)C3)n2)c1 (centres undefined)
INHIBITION (%): 10.9

Query: Would you kindly share the measured INHIBITION for CC1CN(Cc2ccccc2Cn2cccn2)CCN1C (centres undefined) ?
Response: 48.4

Query: Consider next the compound CN(C)CC1CN(Cc2nc(-c3cccnc3)no2)CCO1 (centres undefined) in the same way.
Response: -51.1

Query: Consider next the compound c1cnn(CCC2CCCCN2Cc2cnc(C3CCCCC3)nc2)c1 (centres undefined) in the same way.
Response: -9.85

Query: Consider next the compound CN(C)C(=O)CN1C(=O)CCC12CCN(Cc1ccc(F)cc1)CC2 in the same way.
Response: -99.9

Query: Consider next the compound Cc1cccc(-c2noc(CN3CCOC(Cn4cccn4)C3)n2)c1 (centres undefined) in the same way.
Response: 51.2

Query: Consider next the compound COc1cc(N2CCC3(CCN(Cc4csc(C)n4)C3=O)C2)ncn1 (centres undefined) in the same way.
Response: -8.45

Query: Consider next the compound COc1ccc(S(=O)(=O)N2CCC[C@@H]3CN(C(=O)C4CC4)C[C@@H]32)cc1 in the same way.
Response: -95.9

Query: Consider next the compound CNS(=O)(=O)CCCN1CCCCCC1c1ccc(C)o1 (centres undefined) in the same way.
Response: 10.3

Query: Consider next the compound c1ccc(CN2CCC3(CC2)CCN(c2ccccn2)C3)nc1 in the same way.
Response: 3.14

Query: Consider next the compound CNS(=O)(=O)CCCN1CCCN(Cc2ccccc2)CC1C (centres undefined) in the same way.
Response: 59.7

----------
System: Plasmodium falciparum
MEASUREMENT PROTOCOL: Screen against P. falciparum Asexual Blood Stage (ABS), at 5uM
Type: functional, Dd2
SETUP CONDITIONS: tested at 5 uM
Among all 65,000 compounds or so, about 2,100 (3.2%) showed an effect of 50% or more. The median lay at about -52%. The full list was thinned out, with strong results kept by preference.
Entries and their INHIBITION values follow.
Just the number please, in %, no unit attached.

Query: Would you kindly share the measured INHIBITION for COc1nc2ccn(CCc3cnccn3)c(=O)c2cc1C#N ?
Response: -11.9

Query: Consider next the compound CC(C)NC(=O)Nc1ccc(CNCc2ccc(OC(F)F)cc2)cc1 in the same way.
Response: -97.1

Query: Consider next the compound Cc1c(NC(=O)N(C)CCO)cccc1OC1CCCC1 in the same way.
Response: -65.2

Query: Consider next the compound Cc1cccc2c(CCNC(=O)NCCC[S+](C)[O-])c[nH]c12 (centres undefined) in the same way.
Response: -85.3

Query: Consider next the compound CCn1c(CN2CCN(CCO)CC2)nc2c(F)cccc21 in the same way.
Response: 10.6

Query: Consider next the compound CN(C)CCCNC(=O)c1ccc(N(C)S(C)(=O)=O)cc1Cl in the same way.
Response: -70.5

Query: Consider next the compound Cc1cc(C2CCCN(CC(=O)N3CCCc4ccccc43)C2)n[nH]1 (centres undefined) in the same way.
Response: -8.74

Query: Consider next the compound COc1nc2ccn(CCc3scnc3C)c(=O)c2cc1C#N in the same way.
Response: -31.6

Query: Consider next the compound CCOCc1nc2c(c(N(C)Cc3ccsc3)n1)CCNCC2 in the same way.
Response: 64.4

Query: Consider next the compound Cc1cc2ccccc2n1CCC(=O)N1CCC2(CC1)CNC(=O)C2 in the same way.
Response: -33.5

----------
System: Plasmodium falciparum
MEASUREMENT PROTOCOL: Screen against P. falciparum Asexual Blood Stage (ABS), at 5uM
Type: functional, Dd2
SETUP CONDITIONS: tested at 5 uM
About 2,100 (3.2%) of roughly 65,000 compounds showed an effect of 50% or more. The median lay at about -52%. The list comes from a sample in which strong results are over-represented; it also holds close analogues and randomly drawn compounds.
MEASURE NAME: INHIBITION (%)
Just the number please, in %, no unit attached.

COMPOUND: CCc1cnc(N)nc1NCCn1cc(Cl)cn1
MEASURE NAME: INHIBITION
RESULT: 55.4

COMPOUND: Cc1cc(-c2cnc(N3CCC(C(N)=O)CC3)nc2C(C)C)on1
MEASURE NAME: INHIBITION
RESULT: -7.12

COMPOUND: CSCC(=O)N(C)Cc1noc(-c2ccccc2)n1
MEASURE NAME: INHIBITION
RESULT: -229

COMPOUND: CN1CCN(C(=O)[C@H]2C[C@@H]3CCN(c4ncc(F)cn4)C[C@@H]3O2)CC1
MEASURE NAME: INHIBITION
RESULT: -116

COMPOUND: c1ncn(Cc2ccc(CNCc3ccc4c(c3)OCCO4)cc2)n1
MEASURE NAME: INHIBITION
RESULT: 0.0598

Query: Recall the recorded INHIBITION for O=C(NCC(F)F)c1cnc(C2CCCN2)cn1 (stereo not drawn) with Plasmodium falciparum and state it.
Response: -41.5

Query: Consider next the compound Cn1cc(CN2CC[C@@H]3[C@@H]2CCN3Cc2ccc3c(c2)OCO3)cn1 in the same way.
Response: -88.4

Query: Consider next the compound Cc1oc(C)c(C(=O)NCc2ccccc2CN(C)C)c1C in the same way.
Response: 57.3

----------
Test system: Plasmodium falciparum
MEASUREMENT PROTOCOL: Screen against P. falciparum Asexual Blood Stage (ABS), at 5uM
Assay type: functional, Dd2
SETUP CONDITIONS: tested at 5 uM
Among all 65,000 compounds or so, about 2,100 (3.2%) showed an effect of 50% or more. The median lay at about -52%. Many of the other results were omitted from the sample, so strong results are more common in it than they were.
Entries and their INHIBITION values follow.
Just the number please, in %, no unit attached.

// below: answered molecules
MOLECULE: N#CCCN(C(=O)CN1CCCC1C1CCCCC1)c1ccccc1 (stereo unspecified)
INHIBITION [%]: 52.2
--
MOLECULE: Cc1ccc(N(CCC#N)C(=O)CN2CCCC2c2ccsc2)cc1 (stereo unspecified)
INHIBITION [%]: 46.2
--
MOLECULE: Cn1cc(CNC2CCc3c(ccc(=O)n3Cc3cccnc3)C2)cn1 (stereo unspecified)
INHIBITION [%]: -48.3
--
MOLECULE: CCN(C(=O)CN1CCCC1c1ccc(OC)cc1)c1ccccc1 (stereo unspecified)
INHIBITION [%]: 18.8

Query: Recall the recorded INHIBITION for Cc1ccc(N(CCC#N)C(=O)CN2CCCC2c2cccs2)cc1 (stereo unspecified) with Plasmodium falciparum and state it.
Response: 13.3

Query: Consider next the molecule Cn1nccc1-c1nc2c(cc1C(=O)O)CCN(C(=O)C1CC1)CC2 in the same way.
Response: -73.9

----------
Tested on: Plasmodium falciparum
MEASUREMENT PROTOCOL: Screen against P. falciparum Asexual Blood Stage (ABS), at 5uM
Type: functional, Dd2
SETUP CONDITIONS: tested at 5 uM
Screen size: about 65,000 compounds; about 2,100 (3.2%) showed an effect of 50% or more. The median lay at about -52%. The list comes from a sample in which strong results are over-represented; it also holds close analogues and randomly drawn compounds.
MEASURE NAME: INHIBITION
# do not omit the unit; it follows the number

Query: Would you kindly share the measured INHIBITION for Cc1ccc(CN(Cc2c[nH]cn2)C2CC(C)(C)NC(C)(C)C2)o1 ?
Response: -50.8%

Query: Consider next the compound CN(CCc1ccccc1)c1cnn(C)c(=O)c1Br in the same way.
Response: -12.3%

Query: Consider next the compound Cc1ccc(CN(Cc2cccnc2)C2CC(C)(C)NC(C)(C)C2)s1 in the same way.
Response: 69.6%

Query: Consider next the compound O=C(Cc1ccc2c(c1)CCCC2)N[C@@H]1CC[C@@H](n2ccnc2)[C@@H]1O in the same way.
Response: -119%

Query: Consider next the compound CCC(C)(COc1ncccc1Cl)NCC(=O)NC1CCCCC1 (stereo unspecified) in the same way.
Response: -85.6%

Query: Consider next the compound Cc1ccc(CN(Cc2ccncc2)C2CCN(C)CC2)s1 in the same way.
Response: 34.9%

Query: Consider next the compound CC1(C)CC(N(Cc2ccccc2)Cc2c[nH]cn2)CC(C)(C)N1 in the same way.
Response: 20.7%

Query: Consider next the compound Cc1ccc(CN(Cc2ccccn2)C(=O)[C@H]2CC[C@@H](N)C2)s1 in the same way.
Response: -57.1%

Query: Consider next the compound Cc1ccc(CN(Cc2ncc[nH]2)C2CC(C)(C)NC(C)(C)C2)o1 in the same way.
Response: -15.9%

Query: Consider next the compound CC1(C)CC(N(Cc2cccnc2)Cc2cccnc2)CC(C)(C)N1 in the same way.
Response: -5.22%

Query: Consider next the compound Cc1ccc(CN(Cc2ccncc2)C2CC(C)(C)NC(C)(C)C2)o1 in the same way.
Response: 66.9%
